Entry source: paper PMC8000448

# measurement target: CYP3A (Homo sapiens)
# Sequence (P08684 2-503): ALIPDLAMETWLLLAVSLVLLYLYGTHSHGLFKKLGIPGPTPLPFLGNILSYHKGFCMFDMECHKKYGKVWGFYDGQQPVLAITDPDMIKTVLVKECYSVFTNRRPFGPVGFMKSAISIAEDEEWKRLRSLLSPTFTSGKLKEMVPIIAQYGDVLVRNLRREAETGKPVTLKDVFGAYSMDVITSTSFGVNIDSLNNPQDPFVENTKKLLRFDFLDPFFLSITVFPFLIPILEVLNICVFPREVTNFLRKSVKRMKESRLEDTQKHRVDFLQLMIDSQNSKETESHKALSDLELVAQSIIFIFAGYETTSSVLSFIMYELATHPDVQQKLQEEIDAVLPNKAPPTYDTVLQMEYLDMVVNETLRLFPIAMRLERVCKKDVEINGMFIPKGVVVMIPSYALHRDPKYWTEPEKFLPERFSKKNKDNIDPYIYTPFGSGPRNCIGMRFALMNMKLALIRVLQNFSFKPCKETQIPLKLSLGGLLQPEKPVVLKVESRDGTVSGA
# method notes: CYP3A inhibition in HLMs (midazolam, nifedipine, testosterone);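 also: pooled HLMs at 0.25 mg/mL in phosphate buffer, inhibitor across 0–50 µM, 10 min reaction at 37 °C after preincubation, probe metabolite quantified by LC-MS/MS, triplicate incubations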
# condition parameters: pooled human liver microsomes, pH 7.4, probe midazolam (cocktail set B)
outcome measure: IC50 shift at 10 min

query: Give the measured IC50 shift at 10 min of `COc1cc2c(c(OC)c1OC)-c1c(cc3c(c1OC)OCO3)C[C@H](C)[C@H](C)C2` .
result: 2.7

* * *

Exercise: for every item that follows, state its recorded IC50.
# measurement target: CYP2C8 (Homo sapiens, UniProt P10632)
# Construct: pooled HLMs (0.25 mg/mL); tissue XenoTech H2630; host or cells: pooled human liver microsomes, mixed gender
# Sequence (P10632 1-490): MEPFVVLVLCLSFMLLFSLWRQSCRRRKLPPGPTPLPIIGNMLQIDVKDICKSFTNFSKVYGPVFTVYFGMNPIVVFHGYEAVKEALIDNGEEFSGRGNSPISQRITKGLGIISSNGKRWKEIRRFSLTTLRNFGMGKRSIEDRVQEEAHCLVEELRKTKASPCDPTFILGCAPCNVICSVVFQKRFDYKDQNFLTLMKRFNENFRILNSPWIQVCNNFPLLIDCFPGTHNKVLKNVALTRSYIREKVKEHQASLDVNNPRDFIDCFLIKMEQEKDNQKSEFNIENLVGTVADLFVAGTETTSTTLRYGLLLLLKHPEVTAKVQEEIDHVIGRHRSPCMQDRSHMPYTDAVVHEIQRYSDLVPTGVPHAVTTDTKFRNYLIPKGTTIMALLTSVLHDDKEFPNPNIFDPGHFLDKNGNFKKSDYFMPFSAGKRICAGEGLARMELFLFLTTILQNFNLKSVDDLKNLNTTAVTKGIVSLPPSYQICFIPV
# method notes: CYP2C8 inhibition in HLMs (amodiaquine)
# Assay type: in vitro ADME
# condition parameters: reversible inhibition, read-out: IC50 RI, CYP2C8
Your answer should be a plain number; it is taken to be in µM.

query: Give the measured IC50 of COc1c2c(cc3c1-c1c(cc4c(c1OC)OCO4)C[C@H](C)[C@H](C)C3)OCO2 [Wuweizisu C, wuweizisu C] .
result: 21

query: Give the measured IC50 of COc1cc2c(c(OC)c1OC)-c1c(cc(OC)c(OC)c1OC)C[C@](C)(O)[C@@H](C)C2 [Schisandrin, schisandrin] .
result: 22

query: Give the measured IC50 of COc1cc2c(c(OC)c1OC)-c1c(cc3c(c1OC)OCO3)C[C@H](C)[C@H](C)C2 [Gomisin N, gomisin N] .
result: 31.7

* * *

# measurement target: CYP2E1 (Homo sapiens)
# Construct: pooled HLMs (0.25 mg/mL); tissue XenoTech H2630; host or cells: pooled human liver microsomes, mixed gender
# Sequence (P05181 whole entry): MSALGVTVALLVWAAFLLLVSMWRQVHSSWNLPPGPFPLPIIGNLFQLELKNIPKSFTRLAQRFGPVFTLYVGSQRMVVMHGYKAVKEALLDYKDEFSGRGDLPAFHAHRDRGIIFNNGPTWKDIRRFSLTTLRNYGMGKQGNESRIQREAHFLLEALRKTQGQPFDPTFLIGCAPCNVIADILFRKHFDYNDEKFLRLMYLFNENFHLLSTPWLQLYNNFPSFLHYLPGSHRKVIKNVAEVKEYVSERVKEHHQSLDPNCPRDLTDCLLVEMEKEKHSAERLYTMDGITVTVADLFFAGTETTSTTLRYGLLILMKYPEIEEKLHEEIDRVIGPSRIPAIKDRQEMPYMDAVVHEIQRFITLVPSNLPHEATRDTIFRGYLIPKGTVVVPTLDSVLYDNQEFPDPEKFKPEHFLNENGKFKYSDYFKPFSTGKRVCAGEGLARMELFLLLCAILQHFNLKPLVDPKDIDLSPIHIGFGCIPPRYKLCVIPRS
# method notes: CYP2E1 inhibition in HLMs (chlorzoxazone)
# Type: in vitro ADME
# condition parameters: 30 min pre-incubation with NADPH generating system, read-out: IC50 TDI, CYP2E1
outcome measure: pIC50
Note on pIC50: it is the negative log10 of concentration, concentration in mol/L.

query: Give the measured pIC50 of COc1cc2c(c(OC)c1OC)-c1c(cc(OC)c(OC)c1OC)C[C@](C)(O)[C@@H](C)C2 [Schisandrin, schisandrin] .
result: 4.44

query: Give the measured pIC50 of COc1c2c(cc3c1-c1c(cc4c(c1OC)OCO4)C[C@H](C)[C@H](C)C3)OCO2 [Wuweizisu C, wuweizisu C] .
result: 4.60

query: Give the measured pIC50 of COc1cc2c(c(OC)c1OC)-c1c(cc3c(c1OC)OCO3)C[C@H](C)[C@H](C)C2 [Gomisin N, gomisin N] .
result: 4.63

query: Give the measured pIC50 of COc1cc2c(c(OC)c1OC)-c1c(cc3c(c1OC)OCO3)C[C@H](C)[C@](C)(O)[C@H]2OC(=O)c1ccccc1 [Gomisin C, gomisin C] .
result: 4.61
